target: short form of the GPR120 receptor (GPR120S) (Homo sapiens, UniProt Q5NUL3); experiment: Human GPR120 DiscoveRx PathHunter Beta-Arrestin assay, Procedure β-arrestin B; conditions: PathHunter CHO-K1 GPR120S β-Arrestin cell line, 5000 cells/well, read-out: hGPR120 β-arrestin B EC50
pEC50: −log10 of the molar value.
value-kind: pEC50

compound	reported
OCCCc1cc(F)c(OCc2c(-c3ccc(Cl)cc3F)nsc2C(F)(F)F)c(F)c1	7.10
O=C(O)CCc1cc(F)c(OCc2c(-c3ccccc3)nsc2C(F)(F)F)c(F)c1	6.88

a = Cc1ccc(-c2nsc(C(F)(F)F)c2COc2ccc(CCC(=O)O)c(C)c2C)c(F)c1
b = CCc1ccc(-c2nsc(C(F)(F)F)c2COc2c(F)cc(CCC(=O)O)cc2F)nc1
c = CCc1cc(OCc2c(Cl)nsc2-c2ccccc2C)ccc1CCC(=O)O
d = Cc1c(CCC(=O)O)ccc(OCc2c(-c3ccc(C(F)(F)F)cc3)nsc2C(F)(F)F)c1C
Order the records, beginning with the lowest pEC50 and ending with the highest. Answer format: list of labels, ordered as asked.
c, b, a, d
(c: 5.42, b: 6.14, a: 6.38, d: 6.64)

* * *

target: Human GPR120 short form (Homo sapiens, UniProt Q5NUL3); construct: expressed in transfected cells; experiment: Human GPR120 calcium flux assay (FLIPR), Procedure Calcium A; format: cell-based; conditions: HEK-293 cells expressing human GPR120 short form, 2500 cells/well; read-out: GPR120 Ca2+ Assay A EC50
pEC50: −log10 of the molar value.
value-kind: pEC50

molecule	reported
CCc1ccc(-c2sncc2COc2ccc(CCC(=O)O)c(C)c2C)cc1 [Cpd 158]	6.72

P = CC(=O)c1ccc(-c2nsc(C(F)(F)F)c2COc2c(F)cc(CCC(=O)O)cc2F)cc1 [Cpd 131]
Q = CC(Cc1ccc(OCc2c(-c3ccc(Cl)c(F)c3)nsc2C(F)(F)F)cc1)C(=O)O (centres unmarked) [Cpd 165]
R = COc1cc(F)c(-c2nsc(C(F)(F)F)c2COc2ccc(CCC(=O)O)c(C)c2C)c(F)c1 [Cpd 229]
S = COc1ccc(-c2nsc(C(F)(F)F)c2COc2c(F)cc(CCC(=O)O)cc2F)cn1 [Cpd 98]
# ascending order, key=pEC50 List the labels, following the order given in the request.
R, Q, P, S
(R: 6.03, Q: 6.67, P: 6.89, S: 7.13)

1 = CCc1ccc(-c2nsc(C(F)(F)F)c2COc2c(F)cc(CC(C)C(=O)O)cc2F)c(F)c1 (centres unmarked) [Cpd 188]
2 = CCc1cc(OCc2c(Cl)nsc2-c2ccccc2C)ccc1CCC(=O)O [Cpd 227]
3 = CC(Cc1cc(F)c(OCc2c(-c3ccc(Cl)cc3)nsc2C(F)(F)F)c(F)c1)C(=O)O (centres unmarked) [Cpd 108]
4 = Cc1c(CCC(=O)O)ccc(OCc2csnc2-c2ccc(Cl)s2)c1C [Cpd 204]
Let's sort these by pEC50, smallest first. Go ahead? Please reply with the labels ordered as requested. Many thanks.
2, 4, 1, 3
(2: 6.06, 4: 6.30, 1: 6.51, 3: 7.05)

* * *

target: long form of human GPR120 (Homo sapiens, UniProt Q5NUL3); assay: Human GPR120 DiscoveRx PathHunter Beta-Arrestin assay, Procedure β-arrestin A; conditions: PathHunter CHO-K1 GPR120 β-Arrestin cell line, 3000 cells per well, read-out: hGPR120 β-arrestin A EC50
value-kind: EC50 (nM)

Please review the entries below; each comes with its answer.
compound	EC50 / nM
Cc1c(CCC(=O)O)ccc(OCc2c(Cl)nsc2-c2ccccc2)c1C	189
O=C(O)CCc1cc(F)c(OCc2c(C3CCCC3)nsc2C(F)(F)F)c(F)c1	278

a = CCc1ccc(-c2cc(F)sc2COc2ccc(CCC(=O)O)c(C)c2C)cc1
b = CC(CO)Cc1cc(F)c(OCc2c(-c3ccc(Cl)cc3)nsc2C(F)(F)F)c(F)c1 (centres unmarked)
c = COc1ccc(-c2nsc(C(F)(F)F)c2COc2c(F)cc(CCCO)cc2F)cc1
Highest EC50 first, then in falling order down to the smallest. Thanks in advance for listing the labels in the requested order.
b, a, c
(b: 474 nM, a: 218 nM, c: 145 nM)

* * *

biological target: short form of the GPR120 receptor (GPR120S) (Homo sapiens, UniProt Q5NUL3); test: Human GPR120 DiscoveRx PathHunter Beta-Arrestin assay, Procedure β-arrestin B; conditions: PathHunter CHO-K1 GPR120S β-Arrestin cell line, 5000 cells/well, read-out: hGPR120 β-arrestin B EC50
pEC50: −log10 of the molar value.
value-kind: pEC50

compound	pEC50
COc1cccc(-c2nsc(C(F)(F)F)c2COc2ccc(CCC(=O)O)c(C)c2C)c1	6.65

A = CCc1ccc(-c2nsc(C(F)(F)F)c2COc2c(F)cc(CC(C)C(=O)O)cc2F)cc1F (stereo not shown)
B = Cc1ccccc1-c1snc(Cl)c1COc1c(F)cc(CCC(=O)O)cc1F
C = O=C(O)CCc1ccc(OCc2c(C(F)(F)F)nsc2-c2ccc(Cl)cc2)cc1Cl
Sort ascending by pEC50. // format: requested-order list of labels
B, C, A
(B: 6.00, C: 6.26, A: 7.13)

* * *

biological target: long form of human GPR120 (Homo sapiens, UniProt Q5NUL3); assay: Human GPR120 DiscoveRx PathHunter Beta-Arrestin assay, Procedure β-arrestin A; conditions: PathHunter CHO-K1 GPR120 β-Arrestin cell line, 3000 cells per well, read-out: hGPR120 β-arrestin A EC50
pEC50: −log10 of the molar value.
value-kind: pEC50

compound	reported
Cc1c(CCC(=O)O)ccc(OCc2c(Cl)nsc2-c2ccccc2Cl)c1C	6.40
O=C(O)CCc1ccc(OCc2c(-c3ccc(Cl)cc3)nsc2C(F)(F)F)c(Br)c1	7.08
Cc1c(CCC(=O)O)ccc(OCc2c(-c3ccc(C4CC4)cc3)nsc2C(F)(F)F)c1C	6.42
Cc1cc(OCc2c(-c3ccc(Cl)c(F)c3)nsc2C(F)(F)F)c(F)cc1CCC(=O)O	6.62
OCCCc1cc(F)c(OCc2c(C3CCCC3)nsc2C(F)(F)F)c(F)c1	6.98
Cc1c(CCC(=O)O)ccc(OCc2c(-c3ccc(Cl)cc3)nsc2C(F)(F)F)c1C	6.85
O=C(O)CCc1cc(F)c(OCc2c(-c3ccc4c(c3)OCO4)nsc2C(F)(F)F)c(F)c1	7.06
CCc1ccc(-c2cc(Cl)sc2COc2c(F)cc(CCC(=O)O)cc2F)cc1	6.78

a = O=C(O)/C=C/c1cc(F)c(OCc2c(-c3ccc(Cl)cc3)nsc2C(F)(F)F)c(F)c1
b = Cc1c(CCC(=O)O)cc(F)c(OCc2c(-c3ccc(Cl)cc3)nsc2C(F)(F)F)c1F
# query: argmin of pEC50 over a and b When you have decided, please share the label of that item.
a
(a: 6.47, b: 7.15)

* * *

target: UniProt:Q5NUL3; assay: Human GPR120 DiscoveRx PathHunter Beta-Arrestin assay, Procedure β-arrestin B; conditions: PathHunter CHO-K1 GPR120S β-Arrestin cell line, 5000 cells/well, read-out: hGPR120 β-arrestin B EC50
pEC50: −log10 of the molar value.
value-kind: pEC50

Answered cases to consult:
compound	reported
COc1ccc(-c2nsc(C(F)(F)F)c2COc2c(F)cc(CCC(=O)O)cc2F)c(F)c1	7.07
O=C(O)CCc1cc(F)c(OCc2c(-c3ccc(Cl)cc3F)nsc2C(F)(F)F)c(F)c1	7.20
COc1ccc(-c2nsc(C(F)(F)F)c2COc2ccc(CCC(=O)O)c(C)c2C)cc1F	6.83
O=C(O)CCc1cc(F)c(OCc2c(-c3ccc(Cl)c(F)c3)nsc2C(F)(F)F)c(F)c1F	6.79

I = CC(Cc1cc(F)c(OCc2c(-c3ncc(Cl)cc3F)nsc2C(F)(F)F)c(F)c1)C(=O)O (stereo not drawn)
II = N#Cc1ccc(-c2nsc(C(F)(F)F)c2COc2c(F)cc(CCC(=O)O)cc2F)cc1
Of I and II , which shows the smaller pEC50 value? State your choice using its label.
I
(I: 6.28, II: 6.48)

* * *

Molecular target: Human GPR120 short form (Homo sapiens)
Construct: expressed in transfected cells
Sequence (Q5NUL3 1-361): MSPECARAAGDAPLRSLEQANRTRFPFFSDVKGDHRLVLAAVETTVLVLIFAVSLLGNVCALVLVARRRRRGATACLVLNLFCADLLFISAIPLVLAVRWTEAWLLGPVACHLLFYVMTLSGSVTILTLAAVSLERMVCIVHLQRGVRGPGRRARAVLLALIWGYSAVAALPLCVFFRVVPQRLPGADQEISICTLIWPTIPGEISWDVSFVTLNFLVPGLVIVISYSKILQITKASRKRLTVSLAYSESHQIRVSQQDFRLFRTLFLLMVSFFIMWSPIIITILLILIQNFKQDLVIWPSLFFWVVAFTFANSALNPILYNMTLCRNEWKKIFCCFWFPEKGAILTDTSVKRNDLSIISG
Assay: Human GPR120 calcium flux assay (FLIPR), Procedure Calcium A
Format: cell-based
Conditions: HEK-293 cells expressing human GPR120 short form, 2500 cells/well; read-out: GPR120 Ca2+ Assay A EC50
Excerpt: This in vitro assay serves to assess test compound agonist activity against the short splice variant (SVS with Accession number NM_001195755.1 confirmed by sequencing data) of the GPR120 receptor. […] Upon stimulation, intracellular released Ca^+2 can bind to the dye and alter its fluorescence intensity. This increase in fluorescence signal, and thus the flux in intracellular [Ca^2+], is detected and quantitated by fluorescence imaging using a FLIPR reader. […]
value-kind: EC50 (nM)

I = CCc1ccc(-c2nsc(C(F)(F)F)c2COc2ccc(CCC(=O)O)c(C(F)(F)F)c2C)cc1
II = COc1ccc(-c2nsc(C(F)(F)F)c2COc2ccc(CCC(=O)O)c(C)c2C)cn1
III = COc1nsc(-c2ccc(C)cc2F)c1COc1c(F)cc(CCC(=O)O)cc1F
IV = Cc1ccc(-c2snc(C(F)(F)F)c2COc2c(F)cc(CCC(=O)O)cc2F)c(F)c1
I would appreciate it if you could sort these 4 compounds by EC50, starting from the smallest number. # list labels per requested ordering
IV, III, II, I
